# method: qHTS assay to identify small molecule antagonists of the sonic hedgehog signaling (Shh) pathway (AID 1259369); further: nearly all actives have a fitted effect of over 45% in size
# conditionDetails: NIH/3T3 Gli1-Luc reporter, Shh antagonist, luminescence 24 h; series mostly up to 92.4 µM
Results filed as inconclusive are left out. Active and inactive are the calls of the source. The call rests on the fitted dose curve.
The categories you may choose from are 1 (yes) = active, 0 (no) = inactive

For orientation, consider the following solved cases.
1. CCC[N+](CCC)(CCC)CCC :: 0 (no)
2. CC(C)(C)N(NC(=O)c1ccc(Cl)cc1)C(=O)c1ccccc1 :: 0 (no)
3. C=CCc1ccccc1O :: 0 (no)
4. CC(O)CN1CCN(CC(=O)[O-])CCN(CC(=O)[O-])CCN(CC(=O)[O-])CC1.[Gd+3] (stereo not drawn) :: 0 (no)
5. O=C(O)COc1cc(Cl)c(Cl)cc1Cl :: 0 (no)
6. COc1cc(CC(C)N)c(OC)cc1Br (stereo not drawn) :: 1 (yes)
7. O=[N+]([O-])O[C@H]1CO[C@H]2[C@@H]1OC[C@H]2O[N+](=O)[O-] :: 0 (no)
8. O=C(NCNC(=O)NC1C(=O)NC(=O)N1CO)NC1C(=O)NC(=O)N1CO (stereo not drawn) :: 0 (no)

[in] GET /call?item= COCc1cnc(C2=NC(C)(C(C)C)C(=O)N2)c(C(=O)O)c1 (stereo not drawn) returns the recorded outcome of this test.
[out] 0 (no)

[in] Here is the next molecule: Cc1nnc(-c2ccccc2)c(=O)n1N
[out] 0 (no)

[in] Same for COc1cc(CC#N)cc(OC)c1OC
[out] 0 (no)

[in] Similarly, C=CC(=O)NC(C)(C)CC(C)=O ?
[out] 0 (no)

[in] Please do the same for CCCCCl as well.
[out] 0 (no)

Sourced from PubChem BioAssay (Tox21)
